// data source = PubChem BioAssay AID256

Test system: CD2F1 mice, L1210 leukemia ip, survival T/C
Assay: NCI In Vivo Anticancer Drug Screen. Data for tumor model L1210 Leukemia (intraperitoneal) in CD2F1 (CDF1) mice
Conditions: endpoint: mean survival time; dose: 400.0 mg/kg/injection; schedule: Q04DX003 (ip); vehicle: saline with Tween-80; higher = longer survival
Procedure: The antitumor activity of compounds was measured in mice bearing transplantable tumors. Survival or tumor size were measured and the results are expressed as the measurement made in the treated group (T) divided by the measurement made in the vehicle treated control group (C). The tumor model used in this assay is L1210 Leukemia (intraperitoneal) in CD2F1 (CDF1) mice
Inconclusive results and toxic doses are left out.
measurement.type: T/C

# count of solved cases: 3
O=C(CC(=O)c1ccccc1F)Nc1ccc([N+](=O)[O-])cc1
97 % of control
Cc1[nH]c(=O)c(C(=O)O)c(C)c1[N+](=O)[O-]
96 % of control
CC(C)(CCC(=O)c1ccccc1)C(=O)O
87 % of control

Bench note: what T/C did `OCCc1cc[nH]c1` show?
97 % of control

Request the reported T/C associated with `CC(=O)/C(=N/O)c1ccccc1`
94 % of control

T/C lookup needed for OCC(O)C1OC(SCc2ccccc2)C(O)C(O)C1O (stereo unspecified) , thanks.
107 % of control

* * *

Tested on: CD2F1 mice, L1210 leukemia ip, survival T/C
Assay: NCI In Vivo Anticancer Drug Screen. Data for tumor model L1210 Leukemia (intraperitoneal) in CD2F1 (CDF1) mice
Conditions: endpoint: mean survival time; dose: 100.0 mg/kg/injection; schedule: Q04DX002 (ip); vehicle: saline with Tween-80; higher = longer survival
Inconclusive results and toxic doses are left out.
measurement.type: T/C

Here are 2 compounds together with their reported answers.
CCOC(=O)C1C(=O)CC(c2ccccc2)C(C#N)(c2ccccc2)C1(O)c1ccccc1 (stereo not given)
90 % of control
Cc1cc(=O)[nH]c(-c2ccccc2)c1C(=O)O
95 % of control

Which T/C is reported for this compound? `O=C(COc1c(Cl)cc(Cl)cc1Cl)Nc1ccc2c(c1)C(=O)c1ccccc1C2=O`
94 % of control

// lookup T/C for OC1C(I)CC(Cl)C2CCC[N-]C12.OC1C(I)CC(Cl)C2CCC[N-]C12.[Cu+2] (stereo not given)
96 % of control

Requested read-out: T/C. Entry: `O=C(O)c1ccc(NC(=S)NC(=O)c2cccc(Br)c2)cc1`
95 % of control

* * *

# T/C annotations
System: CD2F1 mice, L1210 leukemia ip, survival T/C
Experiment: NCI In Vivo Anticancer Drug Screen. Data for tumor model L1210 Leukemia (intraperitoneal) in CD2F1 (CDF1) mice
Details: endpoint: mean survival time; dose: 400.0 mg/kg/injection; schedule: Q04DX003 (ip); vehicle: saline with Tween-80; higher = longer survival
Toxic doses and inconclusive results are not listed.

What value of measured T/C is listed for CN1NC(c2ccccc2)C2CN(C3CCCCC3)C(=O)C21O (centres undefined) ?
101 % of control

Item COc1ccc(C2CCc3cc4c(cc3C2=O)OCO4)cc1OC (centres undefined) has what recorded T/C?
91 % of control

* * *

Tested on: CD2F1 mice, L1210 leukemia ip, survival T/C
Test: NCI In Vivo Anticancer Drug Screen. Data for tumor model L1210 Leukemia (intraperitoneal) in CD2F1 (CDF1) mice
Settings: endpoint: mean survival time; dose: 400.0 mg/kg/injection; schedule: Q01DX001 (ip); vehicle: saline with Tween-80; higher = longer survival
Toxic doses and inconclusive results are not listed.
# T/C annotations

Look up T/C for this compound: `CCCCCCCCCCCCCCN1CCCN(CCCCCCCCCCCCCC)CC1`
101 % of control

Name the reported T/C value associated with the compound `OC(C/C(=N\Nc1ccccc1)c1ccc(Br)cc1)(C(F)(F)F)C(F)(F)F`
97 % of control

Query: T/C; subject: `Cc1ccc(C(=O)C(F)(F)F)cc1`
96 % of control

Request the reported T/C associated with `COC(=O)c1cc(Cl)ccc1OCC(=O)Nc1ccccc1`
94 % of control

# get_value(readout='T/C', item= `O=[N+]([O-])c1ccc(C2N(Cc3ccc(Cl)cc3)CCN2Cc2ccc(Cl)cc2)cc1` )
93 % of control

Query (compound): COC1OC2COC(c3ccccc3)OC2C(OS(C)(=O)=O)C1OS(C)(=O)=O (stereo not drawn) ; field requested: T/C
101 % of control

Could you share which T/C value was measured for O=C(Nc1ccccc1)OC1CCCCC1OC(=O)Nc1ccccc1 (stereo not drawn) ?
86 % of control

Give the measured T/C of `CS(=O)(=O)OCCCN(CCCOS(C)(=O)=O)c1ccc(C=Nc2ccc(-c3csc(COc4ccc(Br)cc4)n3)cc2)cc1` .
88 % of control
